FYI, the data here is from paper PMC8222333.

test system: dAsCas12a S542R (Acidaminococcus sp., UniProt U2UMQ6 1-1307, S542R;D908A;E993A;D1235A)
experiment description: Spec-seq (native PAGE EMSA with sequencing of bound and unbound); 25 mM Tris-HCl pH 7.4, 150 mM KCl, 5 mM MgCl2, 10% glycerol, 1 mM DTT, 40 ng/uL salmon sperm DNA; 400 nM Cas12a, 480 nM crRNA, 50 nM library, 37 C 1 h; native PAGE at room temperature; high values mean tight binding;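 also: relative affinity from the bound to unbound sequence frequency ratio in Spec-seq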
assay setup: protein: recombinant
Rule: 1 for binding signal not less than -8 lnKA, -1 for anything less.

Field: example entries. Status: answers known.
- binder: "TGAG (dsDNA) DNA 1: GCTATCTAGTGCTCAGTACGCACTGTGAGAGGAAACTTCTGGCAGGACCAGGTCATGAGATCGGAAGAGCACACGTCTGAACTCCAGTCA DNA 2: TGACTGGAGTTCAGACGTGTGCTCTTCCGATCTCATGACCTGGTCCTGCCAGAAGTTTCCTCTCACAGTGCGTACTGAGCACTAGATAGC RNA: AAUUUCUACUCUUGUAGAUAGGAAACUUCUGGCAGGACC"
  assigned category: -1
- binder: "AGAC (dsDNA) DNA 1: GCTATCTAGTGCTCAGTACGCACTGAGACAGGAAACTTCTGGCAGGACCAGGTCATGAGATCGGAAGAGCACACGTCTGAACTCCAGTCA DNA 2: TGACTGGAGTTCAGACGTGTGCTCTTCCGATCTCATGACCTGGTCCTGCCAGAAGTTTCCTGTCTCAGTGCGTACTGAGCACTAGATAGC RNA: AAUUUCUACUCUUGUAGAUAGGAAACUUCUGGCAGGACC"
  assigned category: -1
- binder: "TATA (dsDNA) DNA 1: GCTATCTAGTGCTCAGTACGCACTGTATAAGGAAACTTCTGGCAGGACCAGGTCATGAGATCGGAAGAGCACACGTCTGAACTCCAGTCA DNA 2: TGACTGGAGTTCAGACGTGTGCTCTTCCGATCTCATGACCTGGTCCTGCCAGAAGTTTCCTTATACAGTGCGTACTGAGCACTAGATAGC RNA: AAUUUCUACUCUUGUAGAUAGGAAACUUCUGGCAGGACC"
  assigned category: 1
- binder: "AGAA (dsDNA) DNA 1: GCTATCTAGTGCTCAGTACGCACTGAGAAAGGAAACTTCTGGCAGGACCAGGTCATGAGATCGGAAGAGCACACGTCTGAACTCCAGTCA DNA 2: TGACTGGAGTTCAGACGTGTGCTCTTCCGATCTCATGACCTGGTCCTGCCAGAAGTTTCCTTTCTCAGTGCGTACTGAGCACTAGATAGC RNA: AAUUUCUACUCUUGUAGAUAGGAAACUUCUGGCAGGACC"
  assigned category: -1
- binder: "ATTG (dsDNA) DNA 1: GCTATCTAGTGCTCAGTACGCACTGATTGAGGAAACTTCTGGCAGGACCAGGTCATGAGATCGGAAGAGCACACGTCTGAACTCCAGTCA DNA 2: TGACTGGAGTTCAGACGTGTGCTCTTCCGATCTCATGACCTGGTCCTGCCAGAAGTTTCCTCAATCAGTGCGTACTGAGCACTAGATAGC RNA: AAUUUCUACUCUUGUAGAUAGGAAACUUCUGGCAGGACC"
  assigned category: 1

Does the reported binding signal for CAGC (dsDNA) DNA 1: GCTATCTAGTGCTCAGTACGCACTGCAGCAGGAAACTTCTGGCAGGACCAGGTCATGAGATCGGAAGAGCACACGTCTGAACTCCAGTCA DNA 2: TGACTGGAGTTCAGACGTGTGCTCTTCCGATCTCATGACCTGGTCCTGCCAGAAGTTTCCTGCTGCAGTGCGTACTGAGCACTAGATAGC RNA: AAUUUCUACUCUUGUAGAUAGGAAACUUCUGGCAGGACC fall at or above the -8 lnKA mark?
-1
